MEASURED ON: UniProt Q12809
Sequence (Q12809 whole entry): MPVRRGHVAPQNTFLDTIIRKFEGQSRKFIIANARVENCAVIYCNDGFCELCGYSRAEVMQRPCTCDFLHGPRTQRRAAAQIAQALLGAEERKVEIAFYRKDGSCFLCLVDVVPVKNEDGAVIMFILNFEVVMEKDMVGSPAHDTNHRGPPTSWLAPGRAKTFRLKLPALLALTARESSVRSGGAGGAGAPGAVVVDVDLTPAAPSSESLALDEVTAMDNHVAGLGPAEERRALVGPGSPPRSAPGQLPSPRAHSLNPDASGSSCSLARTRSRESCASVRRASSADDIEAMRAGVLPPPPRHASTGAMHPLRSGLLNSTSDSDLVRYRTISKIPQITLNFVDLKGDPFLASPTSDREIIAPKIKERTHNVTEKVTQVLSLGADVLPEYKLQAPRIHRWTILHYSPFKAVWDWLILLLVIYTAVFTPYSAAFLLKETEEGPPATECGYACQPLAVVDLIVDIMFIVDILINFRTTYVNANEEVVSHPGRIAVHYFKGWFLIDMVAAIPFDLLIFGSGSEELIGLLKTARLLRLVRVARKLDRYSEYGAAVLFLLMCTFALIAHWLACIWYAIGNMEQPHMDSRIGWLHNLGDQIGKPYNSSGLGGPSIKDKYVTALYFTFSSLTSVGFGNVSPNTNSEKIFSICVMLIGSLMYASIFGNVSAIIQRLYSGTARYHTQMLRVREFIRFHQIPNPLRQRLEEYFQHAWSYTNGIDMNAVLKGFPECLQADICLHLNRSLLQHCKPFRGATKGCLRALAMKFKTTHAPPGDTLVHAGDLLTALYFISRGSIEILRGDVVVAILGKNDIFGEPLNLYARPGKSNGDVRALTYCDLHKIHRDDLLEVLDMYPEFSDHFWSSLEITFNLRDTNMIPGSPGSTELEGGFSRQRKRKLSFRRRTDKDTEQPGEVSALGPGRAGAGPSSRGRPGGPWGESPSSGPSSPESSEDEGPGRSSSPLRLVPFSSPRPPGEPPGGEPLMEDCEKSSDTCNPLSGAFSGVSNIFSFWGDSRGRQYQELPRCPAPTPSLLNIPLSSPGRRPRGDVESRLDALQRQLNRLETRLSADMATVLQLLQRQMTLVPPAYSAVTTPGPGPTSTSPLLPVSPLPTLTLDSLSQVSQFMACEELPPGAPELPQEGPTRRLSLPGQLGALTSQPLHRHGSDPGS
TEST DETAILS: hERG screening assay (PatchXpress patch clamp, CHO cell line)
RUN PARAMETERS: 10 μM
ENDPOINT LABEL: hERG Patch Clamp hERG % blk

| COMPOUND | ENDPOINT LABEL | RESULT |
| --- | --- | --- |
| N#CC1=C(N)OC2=C(C(=O)CCC2)C1c1ccsc1 (centres unmarked) | hERG Patch Clamp hERG % blk | 16.5% |
| CC1=C(C(=O)OCc2ccccc2)C(c2ccc3ccccc3c2)c2c(C)n[nH]c2N1 (centres unmarked) | hERG Patch Clamp hERG % blk | 36.0% |
| CC1=C(C(=O)OC2CCc3ccccc32)C(c2cccc3ccccc23)n2nnnc2N1 (centres unmarked) | hERG Patch Clamp hERG % blk | 51.0% |
| CC1=C(C(=O)NCc2ccccc2)C(c2ccc3ccccc3c2)n2nnnc2N1 (centres unmarked) | hERG Patch Clamp hERG % blk | 22.5% |
| CCOC(=O)C1=C(C)Nc2nnnn2C1c1cccc(Oc2ccccc2)c1 (centres unmarked) | hERG Patch Clamp hERG % blk | 55.0% |

====

Recorded measurements of inhibition at 10 µM, one per entry
MEASURED ON: wild-type human cardiac sodium channel, hNav1.5 (Homo sapiens)
Sequence (Q14524 whole entry): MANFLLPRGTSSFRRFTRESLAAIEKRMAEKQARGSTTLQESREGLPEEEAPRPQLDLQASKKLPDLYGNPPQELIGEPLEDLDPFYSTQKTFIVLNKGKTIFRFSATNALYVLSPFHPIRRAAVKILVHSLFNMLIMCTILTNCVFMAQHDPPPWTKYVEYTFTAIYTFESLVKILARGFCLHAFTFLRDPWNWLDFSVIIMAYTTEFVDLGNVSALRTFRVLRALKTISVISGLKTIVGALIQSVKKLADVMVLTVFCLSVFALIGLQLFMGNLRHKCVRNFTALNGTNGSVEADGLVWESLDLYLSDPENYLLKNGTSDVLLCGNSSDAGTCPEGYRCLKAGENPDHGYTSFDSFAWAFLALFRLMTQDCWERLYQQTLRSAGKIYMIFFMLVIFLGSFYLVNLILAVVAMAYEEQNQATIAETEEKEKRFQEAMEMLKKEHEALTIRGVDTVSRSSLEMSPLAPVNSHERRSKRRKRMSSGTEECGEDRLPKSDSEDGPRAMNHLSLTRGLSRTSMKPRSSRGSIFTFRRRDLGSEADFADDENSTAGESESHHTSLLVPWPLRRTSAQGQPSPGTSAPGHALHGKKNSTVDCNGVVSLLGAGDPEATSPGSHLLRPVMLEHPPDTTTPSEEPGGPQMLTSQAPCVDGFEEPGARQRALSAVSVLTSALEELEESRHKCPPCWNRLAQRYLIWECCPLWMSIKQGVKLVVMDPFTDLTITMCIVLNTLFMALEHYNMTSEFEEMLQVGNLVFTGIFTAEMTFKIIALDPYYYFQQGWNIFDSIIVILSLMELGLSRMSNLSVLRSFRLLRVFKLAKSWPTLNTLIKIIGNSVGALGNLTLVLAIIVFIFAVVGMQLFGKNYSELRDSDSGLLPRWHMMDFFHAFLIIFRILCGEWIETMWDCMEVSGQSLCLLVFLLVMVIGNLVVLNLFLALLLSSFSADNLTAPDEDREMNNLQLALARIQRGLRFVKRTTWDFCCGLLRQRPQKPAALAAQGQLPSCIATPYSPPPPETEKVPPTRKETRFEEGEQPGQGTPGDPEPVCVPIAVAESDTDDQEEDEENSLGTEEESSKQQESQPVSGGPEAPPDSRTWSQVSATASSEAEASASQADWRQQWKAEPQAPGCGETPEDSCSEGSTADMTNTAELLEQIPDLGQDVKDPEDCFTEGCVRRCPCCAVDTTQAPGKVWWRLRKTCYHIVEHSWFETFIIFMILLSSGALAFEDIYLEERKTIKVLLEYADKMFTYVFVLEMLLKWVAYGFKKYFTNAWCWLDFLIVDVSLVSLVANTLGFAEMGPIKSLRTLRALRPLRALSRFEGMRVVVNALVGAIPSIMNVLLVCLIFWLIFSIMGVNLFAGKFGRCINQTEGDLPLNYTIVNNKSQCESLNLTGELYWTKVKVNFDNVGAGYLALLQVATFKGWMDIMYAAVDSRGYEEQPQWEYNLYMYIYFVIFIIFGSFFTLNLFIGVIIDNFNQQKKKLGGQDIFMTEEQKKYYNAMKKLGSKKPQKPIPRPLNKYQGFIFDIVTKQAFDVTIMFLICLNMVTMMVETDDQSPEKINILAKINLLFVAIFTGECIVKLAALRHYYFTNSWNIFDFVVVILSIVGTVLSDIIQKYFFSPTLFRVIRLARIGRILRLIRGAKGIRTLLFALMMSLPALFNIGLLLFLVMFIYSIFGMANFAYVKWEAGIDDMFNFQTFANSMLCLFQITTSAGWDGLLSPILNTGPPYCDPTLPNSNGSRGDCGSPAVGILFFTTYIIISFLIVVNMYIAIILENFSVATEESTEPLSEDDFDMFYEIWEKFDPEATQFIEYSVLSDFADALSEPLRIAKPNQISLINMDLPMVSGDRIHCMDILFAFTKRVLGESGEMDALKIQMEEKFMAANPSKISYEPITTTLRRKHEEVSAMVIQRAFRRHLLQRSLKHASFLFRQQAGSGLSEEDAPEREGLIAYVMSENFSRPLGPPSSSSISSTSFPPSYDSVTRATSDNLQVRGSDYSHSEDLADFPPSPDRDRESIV
TEST DETAILS: Late INa screening assay (late sodium current, PatchXpress whole cell patch clamp)
Type: cell-based
RUN PARAMETERS: compound at 10 μM; read-out: Late INa % blk

| COMPOUND | inhibition at 10 µM / % |
| --- | --- |
| CC1=C(C(=O)OCc2ccccc2)C(c2ccccc2-c2ccccc2C(N)=O)n2nnnc2N1 (centres unmarked) | 2.7 |
| CC1=C(C(=O)OCc2cccs2)C(c2cccc3ccccc23)n2nnnc2N1 (centres unmarked) | 67.5 |
| CCOC(=O)c1c(C)nc2[nH]ncc2c1-c1cccc2ccccc12 | 22.6 |
| CCOC(=O)C1=C(C)NC2=C(C(=O)CCC2)C1c1ccc(C)c2ccccc12 (centres unmarked) | 59.9 |
| CC1=C(C(=O)OC(c2ccc(F)cc2)c2ccc(F)cc2)C(c2cccc3ccccc23)n2nnnc2N1 (centres unmarked) | 44 |
| CC1=C(C(=O)OCc2ccccc2)C(c2ccccc2-c2ccc(OCc3ccccc3)cc2)n2nnnc2N1 (centres unmarked) | 10.6 |
| CC1=C(C(=O)OCc2ccc(-n3cccn3)cc2)C(c2cccc3ccccc23)n2nnnc2N1 (centres unmarked) | 3.3 |
| COC(=O)C1=C(C)Nc2nnnn2C1c1ccc(-c2ccc(OC)cc2)s1 (centres unmarked) | 37.5 |
| CCCC1=C(C(=O)OCC)C(c2ccsc2)C2=C(CC(C(C)C)CC2=O)N1 (centres unmarked) | 41.2 |
| COC(=O)c1ccc(-c2ccc(COC(=O)C3=C(C)Nc4nnnn4C3c3cccc4ccccc34)cc2)cc1 (centres unmarked) | 7.4 |
| CCOC(=O)C1=C(C)Nc2nnnn2C1c1ccccc1-c1ccncc1 (centres unmarked) | 22.1 |
| CCOC(=O)C1=C(C(F)(F)F)Nc2nnnn2C1c1cccc2ccccc12 (centres unmarked) | 8.2 |
| CCOC(=O)C1=C(C)NC(C)=C(C(=O)OCC)C1c1ccc(OC)cc1F | 56.9 |
| CC1=C(C(=O)OCc2ccccc2)C(c2ccc(N(C)C)c3ccccc23)c2cn[nH]c2N1 (centres unmarked) | 20 |

====

Recorded measurements of inhibition at 10 µM, one per entry
MEASURED ON: wild-type human cardiac sodium channel, hNav1.5 (Homo sapiens)
TEST DETAILS: Late INa screening assay (late sodium current, PatchXpress whole cell patch clamp)
Type: cell-based
RUN PARAMETERS: compound at 10 μM; read-out: Late INa % blk
ENDPOINT LABEL: inhibition at 10 µM (%)

| COMPOUND | QUANTITATIVE RESULT |
| --- | --- |
| CC1=C(C(=O)OC(c2ccc(F)cc2)c2ccc(F)cc2)C(c2cccs2)n2nnnc2N1 (stereo not drawn) | 67.2 |
| CC1=C(C(=O)OCc2ccccc2)C(c2ccc(C(F)(F)F)cc2[N+](=O)[O-])n2nnnc2N1 (stereo not drawn) | 5.1 |
| CCOC(=O)C1=C(C)N(C)C(C)=C(C(=O)OCC)C1c1cccc2ccccc12 | 63.2 |
